- measurement_protocol: Half life in rat administered as methocel suspension
- Format: ADME, organism-based
- measurement_setup: in vivo
assay_readout: half-life (h)

>>> numeric_result("O=C(Nc1ccccc1)NC1C(=O)N(CCN2CCOCC2)c2ccccc2N(CC23CC4CC(CC(C4)C2)C3)C1=O (racemic)")
1.1
>>> numeric_result("CN(C)CCN1C(=O)C(NC(=O)Nc2ccccc2)C(=O)N(CC23CC4CC(CC(C4)C2)C3)c2ccccc21 (racemic)")
1.1
>>> numeric_result("CC(C)CCN1C(=O)C(NC(=O)Nc2ccccc2)C(=O)N(CCN(C)C)c2ccccc21 (racemic)")
1
>>> numeric_result("O=C(Nc1ccccc1)NC1C(=O)N(CCN2CCOCC2)c2cc(F)ccc2N(CC23CC4CC(CC(C4)C2)C3)C1=O (single isomer, unassigned; (-))")
1.1
>>> numeric_result("CC(C)CCN1C(=O)C(NC(=O)Nc2ccccc2)C(=O)N(CCN2CCOCC2)c2ccccc21 (racemic)")
0.38

* * *

- measurement_protocol: Oral bioavailability in rat administered as methocel suspension
- Format: ADME, organism-based
- measurement_setup: in vivo
assay_readout: bioavailability (%)

>>> numeric_result("CN(C)CCN1C(=O)C(NC(=O)Nc2ccccc2)C(=O)N(CC23CC4CC(CC(C4)C2)C3)c2ccccc21 (racemic)")
5
>>> numeric_result("O=C(Nc1ccccc1)NC1C(=O)N(CCN2CCOCC2)c2ccccc2N(CC23CC4CC(CC(C4)C2)C3)C1=O (racemic)")
13
>>> numeric_result("O=C(Nc1ccccc1)NC1C(=O)N(CCN2CCOCC2)c2cc(F)ccc2N(CC23CC4CC(CC(C4)C2)C3)C1=O (single isomer, unassigned; (-))")
5
>>> numeric_result("CC(C)CCN1C(=O)C(NC(=O)Nc2ccccc2)C(=O)N(CCN2CCOCC2)c2ccccc21 (racemic)")
18
>>> numeric_result("CC(C)CCN1C(=O)C(NC(=O)Nc2ccccc2)C(=O)N(CCN(C)C)c2ccccc21 (racemic)")
20

* * *

solubility for assorted compounds
- measurement_protocol: Solubility of the compound at pH 2.4
- Format: physicochemical
- measurement_setup: buffer, read-out: solubility
assay_readout: solubility (µg/mL)

>>> numeric_result("CC(C)CCN1C(=O)C(NC(=O)Nc2ccc(O)cc2)C(=O)N(CCN2CCOCC2)c2ccccc21 (racemic)")
450
>>> numeric_result("CC(C)CCN1C(=O)C(NC(=O)Nc2ccccc2)C(=O)N(CCN(C)C)c2ccccc21 (racemic)")
850
>>> numeric_result("O=C(Nc1ccc(F)cc1)NC1C(=O)N(CCN2CCOCC2)c2ccccc2N(CC23CC4CC(CC(C4)C2)C3)C1=O (racemic)")
20
>>> numeric_result("O=C(Nc1ccccc1)NC1C(=O)N(CCN2CCOCC2)c2ccccc2N(CC23CC4CC(CC(C4)C2)C3)C1=O (single isomer, unassigned; (-))")
230

* * *

- measurement_protocol: Clearance in dog administered as methocel suspension
- Type: ADME, organism-based, Canis lupus familiaris
- measurement_setup: in vivo
assay_readout: clearance (mL/min)

>>> numeric_result("CC(C)CCN1C(=O)C(NC(=O)Nc2ccccc2)C(=O)N(CCN2CCOCC2)c2ccccc21 (racemic)")
14
>>> numeric_result("CC(C)CCN1C(=O)C(NC(=O)Nc2ccccc2)C(=O)N(CCN(C)C)c2ccccc21 (racemic)")
23
>>> numeric_result("O=C(Nc1ccccc1)NC1C(=O)N(CCN2CCOCC2)c2ccccc2N(CC23CC4CC(CC(C4)C2)C3)C1=O (racemic)")
34
